Biological target: T1, APBA1_2, Q02410
T1 sequence (Q02410 742-832, limits assumed, looked up): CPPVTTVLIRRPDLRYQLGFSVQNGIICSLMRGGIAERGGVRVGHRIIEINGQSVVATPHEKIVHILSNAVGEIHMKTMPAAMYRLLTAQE
Test: holdup assay
Design: key: below the threshold = too weak to quantify, mostly under pKd 3.1 to 4
Settings: plain residues with an end cap or a label only (N-terminal biotin on a linker: ttds)
Parameter threshold = 4. Response is label 1 when pKd meets or exceeds it, else label 0.

IN: Form field: pKd at least 4? Entry: PRVKPQRSKV [PPP1R13L, Q8WUF5]
OUT: label 0

IN: Form field: pKd at least 4? Entry: KKYVDAETSL [SLC4A7, Q9Y6M7]
OUT: label 0

IN: Form field: pKd at least 4? Entry: VDFPPKESSL [ACVR2A, P27037]
OUT: label 0

Others:
IN: Form field: pKd at least 4? Entry: RHTTSTETAV [HPV30-E6, P36809]
OUT: label 1

IN: Form field: pKd at least 4? Entry: SSLQSLETSV [ATP2B4, P23634]
OUT: label 1
